Every entry's value here was drawn from PubChem BioAssay (NCI).

tested on: UO-31 renal; assay: NCI tumour cell line growth inhibition, 48 h; in the data active = GI50 below about 0.43 µM; inactive = the rest
Field 'call' accepts yes (1) (active), no (0) (inactive)

# example entries with known answers
O=C1CC(c2ccc3c(c2)OCO3)Nc2ccccc21 (stereo not given)	no (0)
NC(=O)c1cccc2cn(-c3ccc([C@@H]4CCCNC4)cc3)nc12	no (0)
Cc1c2cnccc2c(C)c2c1c1ccccc1n2CCCN	yes (1)
NC(Cc1c[nH]c2c(O)cccc12)C(=O)O (stereo not given)	no (0)

Let us examine a further case.
Query: recorded result category for CCCCCN(CCCCC)CC(O)c1cc(C)c2ccc3cc(C(C)C)ccc3c2c1 (stereo not given) in this test
no (0)
